As shown below, each of these molecules has a reported pEC50 value.
MEASURED TARGET: mGluR1 (Homo sapiens)
Construct: expression induced with doxycycline
PROCEDURE DETAILS: aequorin calcium assay, negative allosteric modulation of mGluR1
Format: cell-based
CONDITION: aequorin assay, agonist at EC80; 10000 = no activity observed at 10,000 nM
Conceptually, pEC50 converts a concentration in mol/L into minus its log10.

| COMPOUND STRUCTURE | MEASURED TARGET | pEC50 |
| --- | --- | --- |
| O=C(Nc1ccc([N+](=O)[O-])cc1Cl)c1ccccc1O | mGluR1 (Homo sapiens) | 6.54 |

Per the record, O=C(Nc1cc(C(F)(F)F)cc(C(F)(F)F)c1)c1cc(Cl)ccc1O has pEC50 of 6.95

According to the records, this molecule O=C(Nc1ccc(Cl)c(Cl)c1)c1cc(Cl)ccc1O displays pEC50 of 6.75

pEC50 reading for Cc1cccc(NC(=O)c2cc(Cl)ccc2O)c1 : 5.62

According to the records, this molecule O=C(Nc1cccc(F)c1)c1cc(Cl)ccc1O displays pEC50 of 6.22

* * *

MEASURED TARGET: mGluR5 (Homo sapiens)
Construct: expression induced with doxycycline
PROCEDURE DETAILS: aequorin calcium assay, negative allosteric modulation of mGluR5
Assay type: cell-based
CONDITION: aequorin assay, agonist at EC80; 10000 = no activity observed at 10,000 nM; read-out: mGluR5 EC50
MEASURED PROPERTY: EC50 (nM)
Numbers only here, please. The scale is nM.

Consider O=C(Nc1cc(C(F)(F)F)cc(C(F)(F)F)c1)c1cc(Cl)ccc1O [Compound 20] . Its measured EC50 is 91

Memo: CC(C)(C)c1cccc(NC(=O)c2cc(Cl)ccc2O)c1 [Compound 18] , reported EC50: 238

Looking up O=C(Nc1cccc(C(F)(F)F)c1)c1cc(Cl)ccc1O [Compound 13] , I see its EC50 listed as 127

Recorded EC50 (compound C#Cc1cccc(NC(=O)c2cc(Cl)ccc2O)c1 [Compound 10] ): 122

Noted for Cc1cc(C)cc(NC(=O)c2cc(Cl)ccc2O)c1 [Compound 19] : its EC50 reads 122

* * *

MEASURED TARGET: mGluR1 (Homo sapiens)
Construct: expression induced with doxycycline
PROCEDURE DETAILS: aequorin calcium assay, negative allosteric modulation of mGluR1
Assay type: cell-based
CONDITION: EC50 for mGluR1 divided by EC50 for mGluR5
// mGluR1/mGluR5 Ratio lookup, one value per entry
Reply: number alone, nothing else.

| COMPOUND STRUCTURE | mGluR1/mGluR5 Ratio |
| --- | --- |
| O=C(Nc1cc(C(F)(F)F)cc(C(F)(F)F)c1)c1cc(Cl)ccc1O | 1.22 |
| O=C(Nc1ccccc1)c1cc(Cl)ccc1O | 4.16 |
| CC(C)(C)c1cccc(NC(=O)c2cc(Cl)ccc2O)c1 | 1.40 |
| N#Cc1cccc(NC(=O)c2cc(Cl)ccc2O)c1 | 42.55 |

Per the records, this compound ( Cc1cccc(NC(=O)c2cc(Cl)ccc2O)c1 ) has mGluR1/mGluR5 Ratio equal to 28.40

The compound listed as C=Cc1cccc(NC(=O)c2cc(Cl)ccc2O)c1 shows mGluR1/mGluR5 Ratio equal to 7.73

Recorded mGluR1/mGluR5 Ratio (compound O=C(Nc1cccc(Br)c1)c1cc(Cl)ccc1O ): 2.77

Lab book: mGluR1/mGluR5 Ratio of O=C(Nc1cccc(F)c1)c1cc(Cl)ccc1O noted as 4.33

# mGluR1/mGluR5 Ratio of Cc1cc(C)cc(NC(=O)c2cc(Cl)ccc2O)c1 = 9.39

* * *

Items are presented alongside their recorded pEC50.
MEASURED TARGET: mGluR1 (Homo sapiens)
Construct: expression induced with doxycycline
PROCEDURE DETAILS: aequorin calcium assay, negative allosteric modulation of mGluR1
Type: cell-based
CONDITION: aequorin assay, agonist at EC80; 10000 = no activity observed at 10,000 nM
# pEC50 = -log10(concentration in molar units)

Example cases with answers are listed next.
| COMPOUND STRUCTURE | pEC50 |
| --- | --- |
| C=Cc1cccc(NC(=O)c2cc(Cl)ccc2O)c1 | 6.43 |
| O=C(Nc1cccc(Br)c1)c1cc(Cl)ccc1O | 6.34 |
| O=C(Nc1cccc(C(F)(F)F)c1)c1cc(Cl)ccc1O | 6.56 |
| CCc1cccc(NC(=O)c2cc(Cl)ccc2O)c1 | 6.07 |
| Cc1cc(C)cc(NC(=O)c2cc(Cl)ccc2O)c1 | 5.94 |

pEC50 for O=C(Nc1ccc([N+](=O)[O-])cc1Cl)c1cc(Cl)ccc1O is 7.42

* * *

MEASURED TARGET: mGluR5 (Homo sapiens, UniProt P41594)
Construct: expression induced with doxycycline
Sequence (P41594 21-1212): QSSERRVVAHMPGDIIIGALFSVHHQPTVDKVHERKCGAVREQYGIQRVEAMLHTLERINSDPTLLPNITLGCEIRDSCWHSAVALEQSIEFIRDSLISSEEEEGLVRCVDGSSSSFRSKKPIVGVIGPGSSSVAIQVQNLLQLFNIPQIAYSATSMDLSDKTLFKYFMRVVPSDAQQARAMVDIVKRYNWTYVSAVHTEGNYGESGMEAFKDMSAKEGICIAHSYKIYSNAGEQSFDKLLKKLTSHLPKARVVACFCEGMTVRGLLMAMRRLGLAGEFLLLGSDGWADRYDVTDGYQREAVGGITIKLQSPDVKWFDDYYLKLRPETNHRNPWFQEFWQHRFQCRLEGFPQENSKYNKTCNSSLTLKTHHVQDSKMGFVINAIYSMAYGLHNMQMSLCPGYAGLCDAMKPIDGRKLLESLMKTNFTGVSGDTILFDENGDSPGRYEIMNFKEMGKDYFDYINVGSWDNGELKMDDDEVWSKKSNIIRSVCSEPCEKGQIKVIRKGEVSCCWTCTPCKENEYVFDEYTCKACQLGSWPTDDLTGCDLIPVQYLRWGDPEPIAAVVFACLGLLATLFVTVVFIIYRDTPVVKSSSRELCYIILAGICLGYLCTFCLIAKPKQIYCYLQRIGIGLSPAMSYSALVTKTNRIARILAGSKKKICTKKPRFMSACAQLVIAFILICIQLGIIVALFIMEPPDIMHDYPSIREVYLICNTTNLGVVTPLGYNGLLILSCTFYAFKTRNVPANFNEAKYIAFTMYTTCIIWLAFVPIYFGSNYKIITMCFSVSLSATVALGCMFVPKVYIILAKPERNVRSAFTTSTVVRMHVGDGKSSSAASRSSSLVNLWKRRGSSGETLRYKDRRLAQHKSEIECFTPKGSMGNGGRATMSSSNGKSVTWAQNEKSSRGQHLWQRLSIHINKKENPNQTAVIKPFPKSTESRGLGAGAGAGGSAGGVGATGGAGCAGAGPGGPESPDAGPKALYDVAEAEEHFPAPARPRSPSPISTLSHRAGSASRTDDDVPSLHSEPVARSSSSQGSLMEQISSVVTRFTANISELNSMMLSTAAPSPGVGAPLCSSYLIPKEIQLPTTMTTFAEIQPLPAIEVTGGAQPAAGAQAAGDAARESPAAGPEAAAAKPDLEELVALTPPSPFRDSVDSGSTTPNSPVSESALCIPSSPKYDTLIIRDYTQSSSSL
PROCEDURE DETAILS: aequorin calcium assay, negative allosteric modulation of mGluR5
Type: cell-based
CONDITION: aequorin assay, agonist at EC80; 10000 = no activity observed at 10,000 nM; read-out: mGluR5 EC50
pEC50: −log10 of the molar value.
Below: a set of entries, each annotated with reported pEC50.

Some molecules with recorded pEC50:
| MOLECULE | MEASURED TARGET | MEASURED PROPERTY | ENDPOINT RESULT |
| --- | --- | --- | --- |
| COC(=O)[C@@H]1CCCN1C(=O)Oc1ccc(Cl)cc1C(=O)Nc1ccc([N+](=O)[O-])cc1Cl [Compound 25] | mGluR5 (Homo sapiens, UniProt P41594) | pEC50 | < 5.00 |
| O=C(Nc1ccc([N+](=O)[O-])cc1Cl)c1cc(Cl)ccc1OC(=O)N1CCC[C@H]1C(=O)O [Compound 27] | mGluR5 (Homo sapiens, UniProt P41594) | pEC50 | < 5.00 |

Please examine the following record next.
Value of pEC50 reported for the molecule CN(C)C(=O)Oc1ccc(Cl)cc1C(=O)Nc1ccc([N+](=O)[O-])cc1Cl [Compound 23] is < 5.00

* * *

MEASURED TARGET: mGluR5 (Homo sapiens, UniProt P41594)
Construct: expression induced with doxycycline
PROCEDURE DETAILS: aequorin calcium assay, negative allosteric modulation of mGluR5
Type: cell-based
CONDITION: aequorin assay, agonist at EC80; 10000 = no activity observed at 10,000 nM; read-out: mGluR5 EC50
MEASURED PROPERTY: EC50 (nM)
Supply the numeric figure in nM, leaving out any unit text.

| COMPOUND STRUCTURE | ENDPOINT RESULT |
| --- | --- |
| N#Cc1cccc(NC(=O)c2cc(Cl)ccc2O)c1 | 235 |
| CCc1cccc(NC(=O)c2cc(Cl)ccc2O)c1 | 135 |

Please examine the following record next.
# lookup: O=C(Nc1cccc(Br)c1)c1cc(Cl)ccc1O on mGluR5 (Homo sapiens, UniProt P41594), EC50 = 166

* * *

MEASURED TARGET: mGluR1 (Homo sapiens, UniProt Q13255)
Construct: expression induced with doxycycline
Sequence (Q13255 19-1194): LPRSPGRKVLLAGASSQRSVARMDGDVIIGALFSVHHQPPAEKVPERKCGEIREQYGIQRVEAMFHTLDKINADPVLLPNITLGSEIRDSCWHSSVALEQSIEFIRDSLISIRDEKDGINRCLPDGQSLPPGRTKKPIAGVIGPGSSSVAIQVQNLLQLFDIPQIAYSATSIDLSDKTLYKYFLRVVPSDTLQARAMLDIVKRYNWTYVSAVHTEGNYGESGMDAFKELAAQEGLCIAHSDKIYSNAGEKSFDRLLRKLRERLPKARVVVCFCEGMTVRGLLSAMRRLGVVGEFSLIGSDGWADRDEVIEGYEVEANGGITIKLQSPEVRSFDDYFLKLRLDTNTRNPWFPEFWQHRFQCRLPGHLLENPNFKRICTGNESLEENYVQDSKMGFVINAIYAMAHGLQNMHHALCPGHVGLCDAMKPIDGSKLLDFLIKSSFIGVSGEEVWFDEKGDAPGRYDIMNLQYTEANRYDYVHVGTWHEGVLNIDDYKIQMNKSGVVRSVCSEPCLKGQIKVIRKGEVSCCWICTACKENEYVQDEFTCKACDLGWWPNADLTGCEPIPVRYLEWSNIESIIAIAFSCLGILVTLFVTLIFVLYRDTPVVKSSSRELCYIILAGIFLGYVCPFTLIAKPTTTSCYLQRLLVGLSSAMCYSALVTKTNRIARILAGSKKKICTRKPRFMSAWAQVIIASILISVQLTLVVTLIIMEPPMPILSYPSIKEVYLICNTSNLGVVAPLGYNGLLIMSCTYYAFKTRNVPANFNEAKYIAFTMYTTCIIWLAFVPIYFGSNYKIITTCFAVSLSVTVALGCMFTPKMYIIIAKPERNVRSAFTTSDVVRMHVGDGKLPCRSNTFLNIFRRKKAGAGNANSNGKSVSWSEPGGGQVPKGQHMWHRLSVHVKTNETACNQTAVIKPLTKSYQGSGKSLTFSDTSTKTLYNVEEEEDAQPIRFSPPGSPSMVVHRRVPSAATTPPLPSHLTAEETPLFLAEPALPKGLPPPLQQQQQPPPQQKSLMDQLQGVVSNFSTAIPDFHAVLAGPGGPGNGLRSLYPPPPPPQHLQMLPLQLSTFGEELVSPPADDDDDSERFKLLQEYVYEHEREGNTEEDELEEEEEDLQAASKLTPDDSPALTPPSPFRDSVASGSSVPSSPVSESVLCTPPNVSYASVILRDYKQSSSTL
PROCEDURE DETAILS: aequorin calcium assay, negative allosteric modulation of mGluR1
Format: cell-based
CONDITION: EC50 for mGluR1 divided by EC50 for mGluR5
Response field label: string, one of criterion met (mGluR1/mGluR5 Ratio strictly below 4) or criterion not met.

Examples with answers:
| MOLECULE | ANSWER LABEL |
| --- | --- |
| O=C(Nc1ccc([N+](=O)[O-])cc1Cl)c1ccccc1O [Compound 4] | criterion met |
| O=C(Nc1ccc(Cl)c(Cl)c1)c1cc(Cl)ccc1O [Compound 5] | criterion met |
| O=C(Nc1ccc([N+](=O)[O-])cc1Cl)c1cc(Cl)cc(Cl)c1O [Compound 2] | criterion met |
| O=C(Nc1cccc(C(F)(F)F)c1)c1cc(Cl)ccc1O [Compound 13] | criterion met |
| O=C(Nc1cccc(Cl)c1)c1cc(Cl)ccc1O [Compound 14] | criterion not met |
| CCc1cccc(NC(=O)c2cc(Cl)ccc2O)c1 [Compound 12] | criterion not met |

Exercise: Could you please tell me whether mGluR1/mGluR5 Ratio recorded for C#Cc1cccc(NC(=O)c2cc(Cl)ccc2O)c1 [Compound 10] is less than 4?
Key: criterion not met

* * *

MEASURED TARGET: mGluR1 (Homo sapiens)
Construct: expression induced with doxycycline
PROCEDURE DETAILS: aequorin calcium assay, negative allosteric modulation of mGluR1
Assay type: cell-based
CONDITION: aequorin assay, agonist at EC80; 10000 = no activity observed at 10,000 nM
MEASURED PROPERTY: EC50 (nM)
Expressed in nM, but write only the number.

| COMPOUND | ENDPOINT RESULT |
| --- | --- |
| CC(C)(C)c1cccc(NC(=O)c2cc(Cl)ccc2O)c1 [Compound 18] | 334 |
| O=C(Nc1ccc([N+](=O)[O-])cc1Cl)c1cc(Cl)cc(Cl)c1O [Compound 2] | 1580 |
| O=C(Nc1ccccc1)c1cc(Cl)ccc1O [Compound 6] | 3040 |
| C#Cc1cccc(NC(=O)c2cc(Cl)ccc2O)c1 [Compound 10] | 932 |

Documented EC50 of O=C(Nc1cccc(Cl)c1)c1cc(Cl)ccc1O [Compound 14] : 523
